// IC50 collected for Coagulation factor X (Homo sapiens)
readout: IC50 (nM)

# compound, readout, endpoint_result
rows = [
    ("CNCC(=O)N=S(C)(=O)c1ccc(C(=O)Nc2ccc(Cl)cc2C(=O)Nc2ccc(Cl)cn2)cc1 (stereo unspecified)", "IC50", 5.4),
    ("CN(C)CCN=S(C)(=O)c1ccc(C(=O)Nc2ccc(Cl)cc2C(=O)Nc2ccc(Cl)cn2)cc1 (stereo unspecified)", "IC50", 11.6),
    ("CCNCC(=O)N=S(C)(=O)c1ccc(C(=O)Nc2c(OC)cc(Cl)cc2C(=O)Nc2ccc(Cl)cn2)cc1 (stereo unspecified)", "IC50", 2.4),
    ("CC(C)NCC(=O)N=S(C)(=O)c1ccc(C(=O)Nc2ccc(Cl)cc2C(=O)Nc2ccc(Cl)cn2)cc1 (stereo unspecified)", "IC50", 4),
    ("CN(C)CC(=O)N=S(C)(=O)c1ccc(C(=O)Nc2ccc(Cl)cc2C(=O)Nc2ccc(Cl)cn2)cc1 (stereo unspecified)", "IC50", 9),
    ("COc1cc(Cl)cc(C(=O)Nc2ccc(Cl)cn2)c1NC(=O)c1ccc(S(C)(=O)=NC(=O)CN2CCCC2)cc1 (stereo unspecified)", "IC50", 6.4),
    ("CCNCC(=O)N=S(C)(=O)c1ccc(C(=O)Nc2ccc(Cl)cc2C(=O)Nc2ccc(Cl)cn2)cc1 (stereo unspecified)", "IC50", 2.7),
    ("CCN(CC)CC(=O)N=S(C)(=O)c1ccc(C(=O)Nc2ccc(Cl)cc2C(=O)Nc2ccc(Cl)cn2)cc1 (stereo unspecified)", "IC50", 2.1),
    ("CCN(CC)CC(=O)N=S(C)(=O)c1ccc(C(=O)Nc2c(OC)cc(Cl)cc2C(=O)Nc2ccc(Cl)cn2)cc1 (stereo unspecified)", "IC50", 3.4),
    ("CS(=O)(=NC(=O)CN1CCCC1)c1ccc(C(=O)Nc2ccc(Cl)cc2C(=O)Nc2ccc(Cl)cn2)cc1 (stereo unspecified)", "IC50", 3.2),
    ("CNCC(=O)N=S(C)(=O)c1ccc(C(=O)Nc2c(OC)cc(Cl)cc2C(=O)Nc2ccc(Cl)cn2)cc1 (stereo unspecified)", "IC50", 5.6),
]

* * *

- target_desc: UniProt P00734
pKi: −log10 of the molar value.
The entries below are paired with their reported pKi.

# compound, pKi
measured = [
    ("CCNCC(=O)N=S(C)(=O)c1ccc(C(=O)Nc2ccc(Cl)cc2C(=O)Nc2ccc(Cl)cn2)cc1 (configuration not stated)", "< 4.70"),
    ("CCN(CC)CC(=O)N=S(C)(=O)c1ccc(C(=O)Nc2ccc(Cl)cc2C(=O)Nc2ccc(Cl)cn2)cc1 (configuration not stated)", "< 4.70"),
]

* * *

- target_desc: Coagulation factor X (Homo sapiens, UniProt P00742)
- Sequence (P00742 41-179 limits assumed): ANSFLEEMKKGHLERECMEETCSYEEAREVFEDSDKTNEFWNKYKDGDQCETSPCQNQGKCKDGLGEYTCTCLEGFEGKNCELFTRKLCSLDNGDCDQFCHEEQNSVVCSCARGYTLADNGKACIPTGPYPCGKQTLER
- Sequence (P00742 235-488 limits assumed): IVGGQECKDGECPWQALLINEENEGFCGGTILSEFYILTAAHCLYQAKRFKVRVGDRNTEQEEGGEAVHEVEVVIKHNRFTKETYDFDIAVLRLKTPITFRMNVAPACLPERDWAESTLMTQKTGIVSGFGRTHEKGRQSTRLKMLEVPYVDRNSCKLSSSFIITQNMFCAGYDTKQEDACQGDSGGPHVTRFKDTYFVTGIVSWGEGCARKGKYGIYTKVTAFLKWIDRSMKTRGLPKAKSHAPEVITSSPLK
- experiment_description: Inhibition of human F10a using S-2765 as substrate at 0.1 uM after 45 mins
Active and inactive are the calls of the source. No cut-off for these calls is given here.

# compound, inhibition
data = [
    ("COc1cc(Cl)cc(C(=O)Nc2ccc(Cl)cn2)c1NC(=O)c1ccc(S(C)(=O)=NC(=O)CN2CCCC2)cc1 (stereo unspecified)", "90%"),
    ("CC(C)NCC(=O)N=S(C)(=O)c1ccc(C(=O)Nc2ccc(Cl)cc2C(=O)Nc2ccc(Cl)cn2)cc1 (stereo unspecified)", "97%"),
    ("CC(=O)N=[S+](C)([O-])c1ccc(C(=O)Nc2ccc(Cl)cc2C(=O)Nc2ccc(Cl)cn2)cc1 (stereo unspecified)", "61%"),
    ("CCN(CC)CC(=O)N=S(C)(=O)c1ccc(C(=O)Nc2ccc(Cl)cc2C(=O)Nc2ccc(Cl)cn2)cc1 (stereo unspecified)", "100%"),
    ("C[S+](=N)([O-])c1ccc(C(=O)Nc2ccc(Cl)cc2C(=O)Nc2ccc(Cl)cn2)cc1 (stereo unspecified)", "76%"),
    ("CS(=O)(=NC(=O)CN1CCCC1)c1ccc(C(=O)Nc2ccc(Cl)cc2C(=O)Nc2ccc(Cl)cn2)cc1 (stereo unspecified)", "95%"),
    ("CNCC(=O)N=S(C)(=O)c1ccc(C(=O)Nc2ccc(Cl)cc2C(=O)Nc2ccc(Cl)cn2)cc1 (stereo unspecified)", "93%"),
    ("COc1cc(Cl)cc(C(=O)Nc2ccc(Cl)cn2)c1NC(=O)c1ccc(S(C)(=N)=O)cc1 (stereo unspecified)", "69%"),
    ("N=S(=O)(CCO)c1ccc(C(=O)Nc2ccc(Cl)cc2C(=O)Nc2ccc(Cl)cn2)cc1 (stereo unspecified)", "inactive"),
    ("CS(=O)(=NC(N)=O)c1ccc(C(=O)Nc2ccc(Cl)cc2C(=O)Nc2ccc(Cl)cn2)cc1 (stereo unspecified)", "41%"),
    ("CCN(CC)CC(=O)N=S(C)(=O)c1ccc(C(=O)Nc2c(OC)cc(Cl)cc2C(=O)Nc2ccc(Cl)cn2)cc1 (stereo unspecified)", "97%"),
    ("CS(=O)(=NC(=O)CN1CCOCC1)c1ccc(C(=O)Nc2ccc(Cl)cc2C(=O)Nc2ccc(Cl)cn2)cc1 (stereo unspecified)", "45%"),
    ("CS(=O)(=NC(=O)CNC1CCCC1)c1ccc(C(=O)Nc2ccc(Cl)cc2C(=O)Nc2ccc(Cl)cn2)cc1 (stereo unspecified)", "100%"),
    ("CS(=O)(=NC#N)c1ccc(C(=O)Nc2ccc(Cl)cc2C(=O)Nc2ccc(Cl)cn2)cc1 (stereo unspecified)", "76%"),
    ("CCNCC(=O)N=S(C)(=O)c1ccc(C(=O)Nc2c(OC)cc(Cl)cc2C(=O)Nc2ccc(Cl)cn2)cc1 (stereo unspecified)", "100%"),
    ("CS(=O)(=NCCN1CCCC1)c1ccc(C(=O)Nc2ccc(Cl)cc2C(=O)Nc2ccc(Cl)cn2)cc1 (stereo unspecified)", "74%"),
    ("CS(=O)(=NC(=O)CN1CCC(C(N)=O)CC1)c1ccc(C(=O)Nc2ccc(Cl)cc2C(=O)Nc2ccc(Cl)cn2)cc1 (stereo unspecified)", "49%"),
    ("CS(=O)(=NC(=O)CN1CCCCC1)c1ccc(C(=O)Nc2ccc(Cl)cc2C(=O)Nc2ccc(Cl)cn2)cc1 (stereo unspecified)", "97%"),
    ("CCN(CC)CCN=S(C)(=O)c1ccc(C(=O)Nc2ccc(Cl)cc2C(=O)Nc2ccc(Cl)cn2)cc1 (stereo unspecified)", "77%"),
    ("COCC(=O)N=S(C)(=O)c1ccc(C(=O)Nc2ccc(Cl)cc2C(=O)Nc2ccc(Cl)cn2)cc1 (stereo unspecified)", "48%"),
    ("CCNCC(=O)N=S(C)(=O)c1ccc(C(=O)Nc2ccc(Cl)cc2C(=O)Nc2ccc(Cl)cn2)cc1 (stereo unspecified)", "100%"),
    ("CN(C)CC(=O)N=S(C)(=O)c1ccc(C(=O)Nc2ccc(Cl)cc2C(=O)Nc2ccc(Cl)cn2)cc1 (stereo unspecified)", "85%"),
    ("COc1ccc(NC(=O)c2ccc(S(C)(=N)=O)cc2)c(C(=O)Nc2ccc(Cl)cn2)c1 (stereo unspecified)", "42%"),
    ("CCN(CC)CC(=O)N=S(C)(=O)c1ccc(C(=O)Nc2ccc(OC)cc2C(=O)Nc2ccc(Cl)cn2)cc1 (stereo unspecified)", "56%"),
    ("CS(=N)(=O)Cc1ccc(C(=O)Nc2ccc(Cl)cc2C(=O)Nc2ccc(Cl)cn2)cc1 (stereo unspecified)", "inactive"),
    ("CCS(=N)(=O)c1ccc(C(=O)Nc2ccc(Cl)cc2C(=O)Nc2ccc(Cl)cn2)cc1 (stereo unspecified)", "inactive"),
]

* * *

// pKi collected for Tissue-type plasminogen activator (Homo sapiens, UniProt P00750)
pKi: −log10 of the molar value.
readout: pKi

# compound, readout, endpoint_result
records = [
    ("CCN(CC)CC(=O)N=S(C)(=O)c1ccc(C(=O)Nc2ccc(Cl)cc2C(=O)Nc2ccc(Cl)cn2)cc1 (configuration not stated)", "pKi", "< 4.70"),
    ("CCNCC(=O)N=S(C)(=O)c1ccc(C(=O)Nc2ccc(Cl)cc2C(=O)Nc2ccc(Cl)cn2)cc1 (configuration not stated)", "pKi", "< 4.70"),
]

* * *

- target_desc: Coagulation factor X (Homo sapiens, UniProt P00742)
- experiment_description: Inhibition of human F10a using S-2765 as substrate at 0.1 uM after 45 mins
The entries below are paired with their reported inhibition.

# compound, inhibition
measured = [
    ("CN1CCN(CC(=O)N=S(C)(=O)c2ccc(C(=O)Nc3ccc(Cl)cc3C(=O)Nc3ccc(Cl)cn3)cc2)CC1 (stereo not drawn)", "88%"),
    ("CS(=O)(=O)N=S(C)(=O)c1ccc(C(=O)Nc2ccc(Cl)cc2C(=O)Nc2ccc(Cl)cn2)cc1 (stereo not drawn)", "55%"),
    ("CN1CCCN(CC(=O)N=S(C)(=O)c2ccc(C(=O)Nc3ccc(Cl)cc3C(=O)Nc3ccc(Cl)cn3)cc2)CC1 (stereo not drawn)", "75%"),
    ("CS(=O)(=NC(=O)CN1CCC(O)CC1)c1ccc(C(=O)Nc2ccc(Cl)cc2C(=O)Nc2ccc(Cl)cn2)cc1 (stereo not drawn)", "69%"),
    ("CNCC(=O)N=S(C)(=O)c1ccc(C(=O)Nc2c(OC)cc(Cl)cc2C(=O)Nc2ccc(Cl)cn2)cc1 (stereo not drawn)", "92%"),
    ("CC(C)N(CC(=O)N=S(C)(=O)c1ccc(C(=O)Nc2ccc(Cl)cc2C(=O)Nc2ccc(Cl)cn2)cc1)C(C)C (stereo not drawn)", "79%"),
    ("CN(C)CCN=S(C)(=O)c1ccc(C(=O)Nc2ccc(Cl)cc2C(=O)Nc2ccc(Cl)cn2)cc1 (stereo not drawn)", "82%"),
]
